test.system: hD2S (cloned human dopamine D2S receptor) (Homo sapiens)
Construct: expressed in transfected cells; host or cells: CHO-K1
experiment.notes: Determination of Ki at D2S receptor (radioligand binding, [3H]-Raclopride)
run.parameters: CHO-K1 recombinant cells; [3H]-Raclopride 4 nM; read-out: Ki hD2S
Structures can show the parent of a compound that is named as a salt.
readout.kind: pKi
Friendly reminder that pKi comes from taking -log10 of the concentration in mol/L.

* O=C1C[C@@H]2CCCN2C(=O)N1CCCN1CCC(c2c[nH]c3ccc(F)cc23)CC1 | 7.62
* O=C(OCc1ccccc1)N1CCN2C(=O)N(CCCCN3CCN(c4nsc5ccccc45)CC3)C(=O)C[C@@H]2C1 [Example 20, fumarate] | 8.57

Prompt line: Which pKi is reported for this molecule? COC(=O)N1CCN2C(=O)N(CCCCN3CCC(c4noc5cc(F)ccc45)CC3)C(=O)C[C@@H]2C1 [Example 36, fumarate]
Response line: 8.48

Prompt line: Which pKi is reported for this molecule? O=C1C[C@@H]2CCCN2C(=O)N1CCCN1CCC(c2noc3cc(F)ccc23)CC1
Response line: 6.99

Prompt line: Which pKi is reported for this molecule? O=C1C[C@@H]2COCCN2C(=O)N1CCCCN1CCN(c2nsc3ccccc23)CC1 [Example 18, oxalate]
Response line: 8.19

Prompt line: Which pKi is reported for this molecule? O=C1C[C@H]2CCCN2C(=O)N1C[C@H]1CCCC[C@H]1CN1CCN(c2nsc3ccccc23)CC1 [Example 27, oxalate]
Response line: 9.70

Prompt line: Which pKi is reported for this molecule? O=C1C[C@@H]2CCCN2C(=O)N1CCCN1CCN(c2nsc3ccccc23)CC1
Response line: 7.65

----------
Entries and their Ki
test.system: hD2S (cloned human dopamine D2S receptor) (Homo sapiens, UniProt P14416)
Construct: expressed in transfected cells; host or cells: CHO-K1
Sequence (P14416 1-414 isoform P14416-2): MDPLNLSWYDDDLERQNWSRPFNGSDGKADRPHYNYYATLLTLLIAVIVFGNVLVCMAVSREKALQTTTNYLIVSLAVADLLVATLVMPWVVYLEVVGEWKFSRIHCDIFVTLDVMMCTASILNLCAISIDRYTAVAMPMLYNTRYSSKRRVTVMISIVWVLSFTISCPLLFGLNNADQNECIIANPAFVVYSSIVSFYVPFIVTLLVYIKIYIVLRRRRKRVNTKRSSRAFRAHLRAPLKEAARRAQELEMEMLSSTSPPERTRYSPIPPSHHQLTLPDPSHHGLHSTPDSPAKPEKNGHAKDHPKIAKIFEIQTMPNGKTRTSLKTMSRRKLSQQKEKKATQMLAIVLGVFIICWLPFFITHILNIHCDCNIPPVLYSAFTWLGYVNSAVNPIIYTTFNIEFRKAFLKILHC
experiment.notes: Determination of Ki at D2S receptor (radioligand binding, [3H]-Raclopride)
run.parameters: CHO-K1 recombinant cells; [3H]-Raclopride 4 nM; read-out: Ki hD2S
Procedure: Compounds were tested according to the following procedure. […] Reactions were carried out in buffer with pH 7.4 containing 50 mM Tris-HCl, 120 mM NaCl, 5 mM KCl, 5 mM MgCl2, 1 mM EDTA for 2 h at r.t. […] Radioactivity trapped onto the filters was determined and compared to the control values in order to ascertain any interactions of the test compound(s) with cloned human dopamine […] receptor binding site.
Counter-ions that a name gives are not always drawn.
Your answer is read as nM, so omit the unit and give the number.

A selection of reference data follows.
* O=C1C[C@@H]2CCCN2C(=O)N1CCCCN1CCN(c2nsc3ccccc23)CC1 [Example 2, oxalate] | 5.4
* O=C1C[C@@H]2CCCN2C(=O)N1CCCN1CCC(c2noc3ccccc23)CC1 [Example 44, oxalate] | 119
* O=C(OCc1ccccc1)N1CCN2C(=O)N(CCCCN3CCN(c4nsc5ccccc45)CC3)C(=O)C[C@@H]2C1 [Example 19] | 3.2

Okay, now this molecule:
Prompt line: # query: Ki | item O=C1C[C@@H]2CCCCN2C(=O)N1CCCCN1CCN(c2nsc3ccccc23)CC1 [Example 12] | system: hD2S (cloned human dopamine D2S receptor) (Homo sapiens, UniProt P14416)
Response line: 0.6

----------
test.system: cloned human 5-HT1A receptor (Homo sapiens)
Construct: expressed in transfected cells; host or cells: HEK293-EBNA
Sequence (P08908 whole entry): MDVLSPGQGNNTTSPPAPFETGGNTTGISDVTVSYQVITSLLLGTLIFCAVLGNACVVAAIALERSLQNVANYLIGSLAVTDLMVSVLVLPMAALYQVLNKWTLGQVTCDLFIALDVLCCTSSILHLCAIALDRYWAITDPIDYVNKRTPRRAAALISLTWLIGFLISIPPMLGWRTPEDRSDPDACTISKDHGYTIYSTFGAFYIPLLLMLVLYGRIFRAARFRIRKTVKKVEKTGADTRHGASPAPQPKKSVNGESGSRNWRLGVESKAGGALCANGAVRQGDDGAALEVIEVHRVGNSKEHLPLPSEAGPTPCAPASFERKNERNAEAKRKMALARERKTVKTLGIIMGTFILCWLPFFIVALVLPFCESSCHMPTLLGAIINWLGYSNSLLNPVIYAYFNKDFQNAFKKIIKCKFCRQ
experiment.notes: Determination of Ki at 5-HT1A receptor (radioligand binding, [3H]-8-Hydroxy DPAT)
run.parameters: HEK293-EBNA recombinant cells; [3H]-8-Hydroxy DPAT 0.8 nM; read-out: Ki h5-HT1A
Where a name gives a salt, the structure may show the parent alone.
readout.kind: pKi
Friendly reminder that pKi comes from taking -log10 of the concentration in mol/L.

• COC(=O)N1CCN2C(=O)N(CCCCN3CCC(c4noc5cc(F)ccc45)CC3)C(=O)C[C@@H]2C1 [Example 35] = 7.34
• O=C1C[C@@H]2CCCN2C(=O)N1CCCCN1CCC(c2noc3ccccc23)CC1 [Example 42, oxalate] = 8.06
• O=C(OCc1ccccc1)N1CCN2C(=O)N(CCCCN3CCC(c4noc5cc(F)ccc45)CC3)C(=O)CC2C1 (centres unmarked) [Example 22, fumarate] = 7.08

Prompt line: Which pKi is reported for this compound? O=C1C[C@@H]2CCCN2C(=O)N1CCCN1CCC(c2c[nH]c3ccc(F)cc23)CC1 [Example 25]
Response line: 7.23

Prompt line: Which pKi is reported for this compound? O=C(OCc1ccccc1)N1CCN2C(=O)N(CCCCN3CCN(c4nsc5ccccc45)CC3)C(=O)C[C@@H]2C1 [Example 19]
Response line: 8.96

Prompt line: Which pKi is reported for this compound? O=C1C[C@H]2CCCN2C(=O)N1C[C@H]1CCCC[C@H]1CN1CCC(c2noc3cc(F)ccc23)CC1 [Example 29, oxalate]
Response line: 8.00

Prompt line: Which pKi is reported for this compound? O=C1C[C@@H]2CCCN2C(=O)N1CCCCN1CCN(c2nsc3ccccc23)CC1 [Example 2, oxalate]
Response line: 10.22

Prompt line: Which pKi is reported for this compound? O=C1C[C@@H]2CCCCN2C(=O)N1CCCCN1CCC(c2noc3cc(F)ccc23)CC1 [Example 13]
Response line: 7.83

Prompt line: Which pKi is reported for this compound? COC(=O)N1CCN2C(=O)N(CCCCN3CCN(c4nsc5ccccc45)CC3)C(=O)CC2C1 (centres unmarked) [Example 34, fumarate]
Response line: 8.89

Prompt line: Which pKi is reported for this compound? O=C1C[C@@H]2CCCCN2C(=O)N1CCCCN1CCN(c2nsc3ccccc23)CC1 [Example 12]
Response line: 10.00

Prompt line: Which pKi is reported for this compound? O=C1C[C@@H]2CCCN2C(=O)N1CCCN1CCC(c2noc3ccccc23)CC1 [Example 44, oxalate]
Response line: 6.27

Prompt line: Which pKi is reported for this compound? CC(=O)N1CCN2C(=O)N(CCCCN3CCN(c4nsc5ccccc45)CC3)C(=O)C[C@@H]2C1 [Example 37]
Response line: 9.52

Prompt line: Which pKi is reported for this compound? O=C(OCc1ccccc1)N1CCN2C(=O)N(CCCCN3CCN(c4nsc5ccccc45)CC3)C(=O)C[C@@H]2C1 [Example 20, fumarate]
Response line: 8.89

Prompt line: Which pKi is reported for this compound? O=C1C[C@@H]2CCCN2C(=O)N1CCCCN1CCC(c2noc3cc(F)ccc23)CC1 [Example 5]
Response line: 7.83

Prompt line: Which pKi is reported for this compound? O=C1C[C@@H]2CCCCN2C(=O)N1CCCCN1CCC(c2c[nH]c3ccc(F)cc23)CC1 [Example 15]
Response line: 8.66
